# study-system: KdpFABC (WT) (Escherichia coli)
# Construct: gene kdpB; full-length kdpFABC operon on plasmid pSD107 (native promoter), 8x His tag at C-terminus of KdpC; expressed in E. coli TK2499; purified in decyl maltoside; KdpB Ser162 phosphate removed with lambda protein phosphatase; Potassium-transporting ATPase KdpC subunit; Potassium-transporting ATPase KdpF subunit
# Sequence (P03960 whole entry): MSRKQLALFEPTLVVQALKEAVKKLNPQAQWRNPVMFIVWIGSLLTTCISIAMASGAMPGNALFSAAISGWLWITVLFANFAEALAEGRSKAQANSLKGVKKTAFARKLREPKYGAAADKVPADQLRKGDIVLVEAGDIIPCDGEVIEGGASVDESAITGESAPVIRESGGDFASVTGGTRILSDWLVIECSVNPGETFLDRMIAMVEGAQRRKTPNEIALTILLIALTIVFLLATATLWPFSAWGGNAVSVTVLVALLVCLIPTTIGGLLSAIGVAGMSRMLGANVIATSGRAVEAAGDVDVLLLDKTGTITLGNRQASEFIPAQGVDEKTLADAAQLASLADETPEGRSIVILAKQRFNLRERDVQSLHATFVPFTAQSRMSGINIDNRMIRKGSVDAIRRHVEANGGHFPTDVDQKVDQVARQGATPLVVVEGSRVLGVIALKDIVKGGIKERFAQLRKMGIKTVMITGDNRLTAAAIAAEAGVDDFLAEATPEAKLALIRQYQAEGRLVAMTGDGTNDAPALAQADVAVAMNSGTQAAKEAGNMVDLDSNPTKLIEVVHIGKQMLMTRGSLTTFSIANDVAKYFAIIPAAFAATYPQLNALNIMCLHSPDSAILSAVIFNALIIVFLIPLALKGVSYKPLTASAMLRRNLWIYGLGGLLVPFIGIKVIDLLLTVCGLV
# Sequence (P03959 whole entry partner): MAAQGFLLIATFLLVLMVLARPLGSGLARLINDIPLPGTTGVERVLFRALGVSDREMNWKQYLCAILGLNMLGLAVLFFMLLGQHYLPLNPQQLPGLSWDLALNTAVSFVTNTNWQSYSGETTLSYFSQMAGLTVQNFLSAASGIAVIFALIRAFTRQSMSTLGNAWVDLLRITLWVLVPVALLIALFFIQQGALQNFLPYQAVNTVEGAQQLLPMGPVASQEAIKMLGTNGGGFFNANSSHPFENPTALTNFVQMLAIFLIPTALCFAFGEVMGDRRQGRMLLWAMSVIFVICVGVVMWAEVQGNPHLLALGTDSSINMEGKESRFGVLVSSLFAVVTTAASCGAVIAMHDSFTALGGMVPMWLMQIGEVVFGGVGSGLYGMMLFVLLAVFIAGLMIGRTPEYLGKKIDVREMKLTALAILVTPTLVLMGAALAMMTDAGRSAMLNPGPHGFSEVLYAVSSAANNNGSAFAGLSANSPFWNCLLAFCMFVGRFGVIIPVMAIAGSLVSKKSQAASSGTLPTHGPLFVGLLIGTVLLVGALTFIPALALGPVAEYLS
# Sequence (P03961 whole entry partner): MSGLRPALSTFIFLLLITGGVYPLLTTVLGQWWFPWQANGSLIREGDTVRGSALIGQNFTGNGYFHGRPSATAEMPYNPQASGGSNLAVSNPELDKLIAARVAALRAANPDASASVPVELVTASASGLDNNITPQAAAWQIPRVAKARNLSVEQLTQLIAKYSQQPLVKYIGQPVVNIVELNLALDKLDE
# Sequence (P36937 whole entry partner): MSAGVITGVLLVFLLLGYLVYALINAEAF
# experiment: coupled-enzyme ATPase assay (pyruvate kinase / lactate dehydrogenase)
# Format: biochemical
assay-endpoint: IC50 (µM)
Only the number, expressed in µM, is required.

Note to self: IC50 recorded for [O]=[V]([OH])([OH])[OH] [orthovanadate] was 8.4
